assay: in vivo; details: BALB/c, mouse, tumor, subcutaneous, 2.5 mg/kg
Measured Endpoint: Kp

Chemical Smiles | Measured Endpoint | Assay Result
CCCCCCCCCCCCCCCC(=O)NCCCC[C@@H](N)C(=O)NCCCNCCCCNCCCN | Kp | 14

====

test: First-in-human clinical trial NCT03536728 Part 1: plasma pharmacokinetics and tolerability of oral AMXT 1501 dicaprate and DFMO; details: human, in vivo
Measured Endpoint: Cmax

Chemical Smiles | Assay Result
CCCCCCCCCCCCCCCC(=O)NCCCC[C@@H](N)C(=O)NCCCNCCCCNCCCN | < 1000 ng/mL

====

test: clinical; conditions: human, in vivo, po
Measured Endpoint: Cmax (ng/mL)

Chemical Smiles | Measured Endpoint | Result Unit | Assay Result
CCCCCCCCCCCCCCCC(=O)NCCCC[C@@H](N)C(=O)NCCCNCCCCNCCCN | Cmax | ng/mL | 794

Source listed as patent US11865095B2.
